Please provide measured EC50 for the entries that follow.
- assay-system: HKU5 HR2 peptide (HKU5), A3EXD0
- Sequence (A3EXD0 1228-1249 limits assumed): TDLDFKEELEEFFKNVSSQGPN
- measurement-notes: peptide ELISA
One number for each entry, in µg/mL.

For each of the binders below, state EC50.
1. hr2.015 (antibody, V domains shown) VH: QVQLVQSGAEVKKPGASVKVSCKASGYTFSSYYVNWVRQAPGQGLEWLGIINRSGSSTIYAQKFQGRVTMTRDTSTSTVYLELSSLRSEDTAVYYCARDQDHALHWGQGTLVTVSS VL: QSVLTQPPSVSAAPGQKVTISCSGSSSNIGSNYVSWYQQLPGTAPKLLIYDNSERPSGIPDRFSGSRSGTSATLGITGLQTGDEADYYCGTWDTSLSAWVFGGGTKLTVL
2. hr2.094 (antibody, V domains shown) VH: EVQLVESGGGLVQPGGSLRLSCAASGFTFSTFWMTWVRQAPGKGLEWVANIKSDGSEKYYVDSVKGRFTISRDNAKNSLYLQMNSLRAEDTAVYYCATWFGLHWGQGTLVTVSS VL: DIVMTQSPDSLAVSLGERASINCKSSQTVLYSSNNKNYLAWYQQKPGQPPKLLIHWASTRDSGVPDRFSGSGSGTDFTLTISSLQAEDVAVYYCQQYHRIPWTFGRGTKVEIK
3. hr2.012 (antibody, V domains shown) VH: QVQLVQSGAEVKKPGASVKVSCKASGYTFTSHYIHWVRQAPGQGLEWMGIIKPSGGNTIYAQTFQGRVTMTRDTSTSTVYMELRSLTSDDTAVYYCARDQDHGLQRWGQGTLVTVSS VL: QSVLTQPPSVSAPPGQKVTISCSGSSSNIGNNFVSWYQQLPGTAPKLLIYDNIERPSGIPDRFSGSRSGTSATLGITGLQTGDEADYYCGTWDTSLGAWVFGGGTKVTVL
4. hr2.017 (antibody, V domains shown) VH: EVQLVESGGGLVQPGGSLRLSCAVSGFAFSSSWMHWIRQAPGRGLVWVSRINRDGSTTDYADSVKGRFTISRDNAKATLYLQMNSLRAEDTAVYYCATMGFDYWGQGALVTVSS VL: DIVMTQSPDSLAVSLGERATINCKSSQNVLYSSNNKNHLSWYQQKPGQPPKLLIYWASTRKSGVPDRFSGSGSGTDFTLTINSLQAEDVAVYYCQQYFSTPNTFGQGTKLEIK
5. hr2.021 (antibody, V domains shown) VH: QVQLVQSGAEVKKPGASVKVSCKASEAIFSGSYLHWVRQAPGQGLEWMGIITPSGDKTFYAQRFQGRLTMTRDTSTNTLHMHLSGLNSEDTAMYYCARQADKGGWDYWGQGTLVTVSS VL: EIVLTQSPGTLSLSPGERATLSCRASQSVTSNYVAWYQQKPGQAPRLLIYGASTRATGIPDRFSGGGSGTDFTLTITRLEPEDFAVYYCQQYGSSPPTFTFGPGTKVDIK

## Output
1: 0.0467; 2: 0.0192; 3: 0.0204; 4: 0.0249; 5: 0.0551
